System: amylase
Test: Amylase activity retention in detergent use solution (4000 ppm, 5 GPG water; ethylidene substrate EPS, HEPES buffer pH 8.0)
Assay type: biochemical
Settings: base formula, phosphonate at 0.1% elemental phosphorus level, use solution at 120º F., time 120 min
Procedure: The enzyme activities in the detergents with different phosphonate levels were tested at 4000 ppm in 5 grains per gallon (GPG) water at 120° F. with various time points collected up to 4 hours, after a use solution was generated from the detergent composition. During the tests, the samples at different time points were collected and immediately frozen in an acetone/dry ice bath and stored in −80° C. before the activity of the enzyme was evaluated. […]
metric-name: Relative Amylase Enzyme Activity (%)
The answer is to be given in %; state only the numeric part.

CC(O)(P(=O)(O)O)P(=O)(O)O [HEDP] :: 82.59
NCP(=O)(O)O [AMPA, Aminomethyl phosphonic acid] :: 92.96
O=P(O)(O)CN(CP(=O)(O)O)CP(=O)(O)O [ATMP, Aminotri (methylene phosphonic acid)] :: 104.38

Moving on to the next compound.
Any idea what its Relative Amylase Enzyme Activity is? The compound is O=C(O)CCC(CC(=O)O)(C(=O)O)P(=O)(O)O (stereo not shown) [PBTC, Phosphonebutane tricarboxylic acid]
89.11

* * *

test system: amylase; assay: Amylase activity retention in detergent use solution (4000 ppm, 5 GPG water; ethylidene substrate EPS, HEPES buffer pH 8.0); assay type: biochemical; conditions: base formula, phosphonate at 0.1% elemental phosphorus level, use solution at 120º F., time 20 min
The following compounds are listed with their measured Relative Amylase Enzyme Activity values.

NCP(=O)(O)O :: 105.43%
O=P(O)(O)CN(CP(=O)(O)O)CP(=O)(O)O :: 106.35%
O=C(O)CCC(CC(=O)O)(C(=O)O)P(=O)(O)O (stereo not shown) :: 89.44%

Which measured Relative Amylase Enzyme Activity belongs to CC(O)(P(=O)(O)O)P(=O)(O)O , tested on amylase?
90.30%

* * *

The following molecules are listed with their measured Relative Amylase Enzyme Activity values.
system: amylase; assay: Amylase activity retention in detergent use solution (4000 ppm, 5 GPG water; ethylidene substrate EPS, HEPES buffer pH 8.0); format: biochemical; details: base formula, phosphonate 0.3 wt-%, use solution at 120° F., time 120 min
The answer is to be given in %; state only the numeric part.

A selection of reference data follows.
O=C(O)CCC(CC(=O)O)(C(=O)O)P(=O)(O)O (stereo not shown) [PBTC, Phosphonebutane tricarboxylic acid] :: 85.85
CC(O)(P(=O)(O)O)P(=O)(O)O [HEDP] :: 84.46
O=P(O)(O)CN(CP(=O)(O)O)CP(=O)(O)O [ATMP, Aminotri (methylene phosphonic acid)] :: 95.08

Any idea what its Relative Amylase Enzyme Activity is? The molecule is NCP(=O)(O)O [AMPA, Aminomethyl phosphonic acid]
92.65

* * *

System: lipase
Test: Lipase activity retention in detergent use solution (4000 ppm, 5 GPG water; p-nitrophenyl valerate, TRIS buffer pH 8.0)
Format: biochemical
Settings: base formula, phosphonate 0.6 wt-%, use solution at 120º F., time 180 min
Protocol: The enzyme […] collected up to 4 hours, after a use solution was generated from the detergent composition. During the tests, the samples at different time points were collected and immediately frozen in an acetone/dry ice bath and stored in −80° C. before the activity of the enzyme was evaluated. […] Enzyme activity under presoak or manual warewash conditions was traced quantitatively using a standard protease assay. […]
The following compounds are listed with their measured Relative Lipase Enzyme Activity values.
The answer is to be given in %; state only the numeric part.

A selection of reference data follows.
O=P(O)(O)CN(CP(=O)(O)O)CP(=O)(O)O :: 33.77
CC(O)(P(=O)(O)O)P(=O)(O)O :: 7.01
NCP(=O)(O)O :: 13.23

Moving on to the next compound.
Any idea what its Relative Lipase Enzyme Activity is? The compound is O=C(O)CCC(CC(=O)O)(C(=O)O)P(=O)(O)O (stereo not shown)
6.06
